Could you please report measured absorbance at 450 nm for the items listed next?
Molecular target: T1, human histidine-rich glycoprotein (HRG), purified from human plasma (human, UniProt P04196 19-525)
T1 construct: also called human purified HRG; human purified HRG protein
T1 sequence: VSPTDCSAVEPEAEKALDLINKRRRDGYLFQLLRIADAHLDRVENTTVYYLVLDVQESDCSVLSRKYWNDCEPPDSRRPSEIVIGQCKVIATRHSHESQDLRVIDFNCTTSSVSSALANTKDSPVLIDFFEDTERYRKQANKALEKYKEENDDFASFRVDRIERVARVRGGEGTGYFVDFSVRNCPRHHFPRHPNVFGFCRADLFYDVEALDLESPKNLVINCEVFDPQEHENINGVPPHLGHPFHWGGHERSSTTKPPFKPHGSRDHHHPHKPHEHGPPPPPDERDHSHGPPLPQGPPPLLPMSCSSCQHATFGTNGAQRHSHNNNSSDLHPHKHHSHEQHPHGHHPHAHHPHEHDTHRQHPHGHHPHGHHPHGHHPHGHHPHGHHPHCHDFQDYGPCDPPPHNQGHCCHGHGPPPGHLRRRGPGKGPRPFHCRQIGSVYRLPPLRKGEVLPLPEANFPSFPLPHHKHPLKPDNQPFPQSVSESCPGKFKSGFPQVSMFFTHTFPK
Assay: sandwich ELISA, HRG captured by solid phase 9-1F

For anti-HRG monoclonal antibody 67-8A-5F (antibody, V domains shown, Mouse hybridoma monoclonal) VH: EVQLQESGPGLVKPSQSLSLTCTVTGYSITSDYAWNWIRQFPGNKLEWMGYISYSGSTSYNPSLKSRISITRDTSKNQFFLQLNSVTTEDTATYYCASASYRYAWFAYWGQGTLVTVSA VL: DIQMTQTTSSLSASLGDRVTISCRASQDISNYLNWYQQKPDGTVKLLIYYTSRLLSGVPSRFSGSGSGTDYSLTISNLEQEDIATYFCQQGNTLPTFGGGTKLEIK the binder record lists absorbance at 450 nm as < 1 OD

For anti-HRG monoclonal antibody 69-1A (antibody, V domains shown, Mouse hybridoma monoclonal; also called clone No. 69-1A) VH: EVKLEESGGGLVQPGGSMKLSCAASGFTFSDAWMDWVRQSPEKGLEWVAEIRSKANNHGTYYAESVKGRFTISRDDSKSSVYLRMNSLSAEDTGIYYCTRPFAYWGQGTLVTVSA VL: DVVVTQTPLSLPVSLGDQASISCRSSQSLVHIDGNTYFHWYVQKPGQSPKLLIYKVSNRFSGVPDRFSGSGSGTDFTLKISRVEAEDLGVYFCSQSTHVPLTFGAGTKLELK the binder record lists absorbance at 450 nm as < 1 OD

For anti-HRG monoclonal antibody 50-6C-2A (antibody, V domains shown, Mouse hybridoma monoclonal) VH: EVQLQESGPGLVKPSQSLSLTCTVTGYSITSDYAWNWIRQFPGNKLEWMGYISYSGSTNYNPSLKSRISITRDTSKNQFFLQLNSVTTEDTATYYCASASYRYAWFAYWGQGTLVTVST VL: DIQMTQTTSSLSASLGDRVTISCRASQDISNYLNWYQQKPDGTVKLLIYYTSRLHSGVPSRFSGSGSGTDYSLTISNLEQEDIGTYFCQQGNTLPTFGGGTKLEIK the binder record lists absorbance at 450 nm as < 1 OD
